Values were extracted from ChEMBL document CHEMBL3739387.

- measured on: Coagulation factor X (Homo sapiens, UniProt P00742)
- Sequence (P00742 41-179 limits assumed): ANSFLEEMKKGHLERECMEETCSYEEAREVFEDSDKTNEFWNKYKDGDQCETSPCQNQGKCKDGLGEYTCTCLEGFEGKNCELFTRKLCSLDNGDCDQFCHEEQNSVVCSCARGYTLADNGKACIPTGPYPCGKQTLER
- Sequence (P00742 235-488 limits assumed): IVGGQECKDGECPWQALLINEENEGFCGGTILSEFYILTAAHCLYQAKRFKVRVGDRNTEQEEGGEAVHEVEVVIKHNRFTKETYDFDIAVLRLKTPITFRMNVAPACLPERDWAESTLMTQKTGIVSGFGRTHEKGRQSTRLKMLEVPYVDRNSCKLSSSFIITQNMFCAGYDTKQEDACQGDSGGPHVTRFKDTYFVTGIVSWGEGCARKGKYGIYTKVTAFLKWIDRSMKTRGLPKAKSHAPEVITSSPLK
result type: IC50 (µM)

>>> assay_result("N=C(N)c1ccc(/C=C2/N=C(c3ccccc3)OC2=O)cc1")
6.47
>>> assay_result("CCOC(=O)c1ccc(OC(=O)CCCCCNC(=N)N)cc1 [GABEXATE]")
4.61

* * *

- measured on: Prothrombin (Homo sapiens)
- method notes: Inhibition of human plasma thrombin using pyroGlu-Pro-Arg-pNA-HCl as substrate at 100 uM measured for 5 mins by spectrophotometric assay
- Assay type: cell-free
result type: inhibition (%)

>>> assay_result("N=C(N)Nc1ccc(CNc2cnc3cc(C(=O)NC4CCCC4)ccn23)cc1")
17.8
>>> assay_result("CN1CCN(CCNC(=O)c2ccn3c(NCc4ccc(NC(=N)N)cc4)cnc3c2)CC1")
6.6
>>> assay_result("N=C(N)Nc1ccc(CNc2c(-c3cccnc3)nc3ccccn23)cc1")
6.6
>>> assay_result("CCCCNC(=O)c1ccn2c(NCc3ccc(NC(=N)N)cc3)cnc2c1")
19.2
>>> assay_result("N=C(N)Nc1ccc(CNc2cnc3ccccn23)cc1")
23
>>> assay_result("N=C(N)Nc1ccccc1")
0
>>> assay_result("N=C(N)Nc1ccc(CNc2cnc3cc(C(=O)NC4CC4)ccn23)cc1")
8
>>> assay_result("N=C(N)Nc1ccc(CNc2cnc3cc(C(=O)NCc4ccc(F)cc4)ccn23)cc1")
19.5
>>> assay_result("N=C(N)NC(=O)c1nc(Cl)c(N)nc1N [AMILORIDE]")
5.2
>>> assay_result("N=C(N)Nc1ccc(CNc2cnc3cc(C(=O)NCCO)ccn23)cc1")
4.7

* * *

- measured on: UniProt:P00747
- method notes: Inhibition of human plasma plasmin using pyroGlu-Pro-Arg-pNA-HCl as substrate at 100 uM measured for 5 mins by spectrophotometric assay
- Type: cell-free
result type: inhibition (%)

>>> assay_result("CN1CCN(CCNC(=O)c2ccn3c(NCc4ccc(NC(=N)N)cc4)cnc3c2)CC1")
0
>>> assay_result("N=C(N)Nc1ccc(CNc2cnc3ccccn23)cc1")
29.8
>>> assay_result("N=C(N)Nc1ccc(CNc2cnc3cc(C(=O)NCCO)ccn23)cc1")
15.6
>>> assay_result("N=C(N)NC(=O)c1nc(Cl)c(N)nc1N [AMILORIDE]")
0
>>> assay_result("CCCCNC(=O)c1ccn2c(NCc3ccc(NC(=N)N)cc3)cnc2c1")
13.6
>>> assay_result("N=C(N)Nc1ccc(CNc2cnc3cc(C(=O)NCc4ccc(F)cc4)ccn23)cc1")
8.3
>>> assay_result("N=C(N)Nc1ccc(CNc2cnc3cc(C(=O)NC4CC4)ccn23)cc1")
3.3
>>> assay_result("N=C(N)Nc1ccccc1")
0
>>> assay_result("N=C(N)Nc1ccc(CNc2cnc3cc(C(=O)NC4CCCC4)ccn23)cc1")
0
>>> assay_result("N=C(N)Nc1ccc(CNc2c(-c3cccnc3)nc3ccccn23)cc1")
0

* * *

- Species on record: Bos taurus
- method notes: Inhibition of bovine pancreatic trypsin using Na-benzoyl-D,L-Arg-pNA-HCl as substrate at 100 uM measured for 5 mins by spectrophotometric assay
result type: inhibition (%)

>>> assay_result("N=C(N)Nc1ccc(CNc2cnc3cc(C(=O)NCCO)ccn23)cc1")
43.3
>>> assay_result("N=C(N)Nc1ccc(CNc2cnc3cc(C(=O)NC4CC4)ccn23)cc1")
46
>>> assay_result("N=C(N)Nc1ccc(CNc2cnc3cc(C(=O)NC4CCCC4)ccn23)cc1")
37.1
>>> assay_result("N=C(N)Nc1ccccc1")
38.8
>>> assay_result("N=C(N)Nc1ccc(CNc2c(-c3cccnc3)nc3ccccn23)cc1")
3.3
>>> assay_result("N=C(N)Nc1ccc(CNc2cnc3cc(C(=O)NCc4ccc(F)cc4)ccn23)cc1")
43.2
>>> assay_result("CN1CCN(CCNC(=O)c2ccn3c(NCc4ccc(NC(=N)N)cc4)cnc3c2)CC1")
32
>>> assay_result("CCCCNC(=O)c1ccn2c(NCc3ccc(NC(=N)N)cc3)cnc2c1")
42.7

* * *

In this section, each of the compounds is paired with its reported inhibition.
- measured on: Plasma kallikrein (Homo sapiens, UniProt P03952)
- Sequence (P03952 20-390 limits assumed): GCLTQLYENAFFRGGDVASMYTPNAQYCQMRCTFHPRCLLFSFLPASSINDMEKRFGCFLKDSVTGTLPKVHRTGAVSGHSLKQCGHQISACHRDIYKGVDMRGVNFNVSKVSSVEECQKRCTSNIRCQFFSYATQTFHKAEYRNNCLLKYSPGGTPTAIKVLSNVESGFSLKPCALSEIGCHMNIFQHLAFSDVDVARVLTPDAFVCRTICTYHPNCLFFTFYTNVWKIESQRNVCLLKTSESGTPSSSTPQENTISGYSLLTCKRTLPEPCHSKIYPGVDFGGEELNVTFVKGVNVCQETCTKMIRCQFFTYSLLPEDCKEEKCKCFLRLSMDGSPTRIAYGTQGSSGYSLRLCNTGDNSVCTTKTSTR
- Sequence (P03952 391-638 limits assumed): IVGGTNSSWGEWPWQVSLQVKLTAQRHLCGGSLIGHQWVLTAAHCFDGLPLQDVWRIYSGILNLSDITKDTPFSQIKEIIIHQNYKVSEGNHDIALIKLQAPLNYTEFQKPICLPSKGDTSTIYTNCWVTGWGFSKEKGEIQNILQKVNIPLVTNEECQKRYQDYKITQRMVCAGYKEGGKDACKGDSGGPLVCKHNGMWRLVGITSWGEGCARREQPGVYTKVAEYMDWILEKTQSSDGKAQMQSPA
- method notes: Inhibition of human plasma kallikrein using D-Pro-Phe-Arg-pNA-2HCl as substrate at 100 uM measured for 5 mins by spectrophotometric assay
- Type: cell-free
result type: inhibition (%)

>>> assay_result("N=C(N)Nc1ccc(CNc2c(-c3cccnc3)nc3ccccn23)cc1")
0
>>> assay_result("CCCCNC(=O)c1ccn2c(NCc3ccc(NC(=N)N)cc3)cnc2c1")
2.8
>>> assay_result("N=C(N)Nc1ccccc1")
0
>>> assay_result("N=C(N)Nc1ccc(CNc2cnc3cc(C(=O)NC4CCCC4)ccn23)cc1")
0

* * *

// pIC50 lookup, one value per entry
- measured on: Plasma kallikrein (Homo sapiens, UniProt P03952)
- method notes: Inhibition of human plasma kallikrein using D-Pro-Phe-Arg-pNA-2HCl as substrate measured for 5 mins by spectrophotometric assay
pIC50: −log10 of the molar value.
result type: pIC50

>>> assay_result("N=C(N)c1ccc(/C=C2/N=C(c3ccccc3)OC2=O)cc1")
5.87
>>> assay_result("CCOC(=O)c1ccc(OC(=O)CCCCCNC(=N)N)cc1 [GABEXATE]")
5.87

* * *

- measured on: Prothrombin (Homo sapiens, UniProt P00734)
- method notes: Inhibition of human plasma thrombin using pyroGlu-Pro-Arg-pNA-HCl as substrate measured for 5 mins by spectrophotometric assay
- Type: cell-free
result type: IC50 (µM)

>>> assay_result("N=C(N)c1ccc(/C=C2/N=C(c3ccccc3)OC2=O)cc1")
56.1
>>> assay_result("CCOC(=O)c1ccc(OC(=O)CCCCCNC(=N)N)cc1 [GABEXATE]")
0.687

* * *

- measured on: Plasminogen (Homo sapiens, UniProt P00747)
- Sequence (P00747 97-580 limits assumed): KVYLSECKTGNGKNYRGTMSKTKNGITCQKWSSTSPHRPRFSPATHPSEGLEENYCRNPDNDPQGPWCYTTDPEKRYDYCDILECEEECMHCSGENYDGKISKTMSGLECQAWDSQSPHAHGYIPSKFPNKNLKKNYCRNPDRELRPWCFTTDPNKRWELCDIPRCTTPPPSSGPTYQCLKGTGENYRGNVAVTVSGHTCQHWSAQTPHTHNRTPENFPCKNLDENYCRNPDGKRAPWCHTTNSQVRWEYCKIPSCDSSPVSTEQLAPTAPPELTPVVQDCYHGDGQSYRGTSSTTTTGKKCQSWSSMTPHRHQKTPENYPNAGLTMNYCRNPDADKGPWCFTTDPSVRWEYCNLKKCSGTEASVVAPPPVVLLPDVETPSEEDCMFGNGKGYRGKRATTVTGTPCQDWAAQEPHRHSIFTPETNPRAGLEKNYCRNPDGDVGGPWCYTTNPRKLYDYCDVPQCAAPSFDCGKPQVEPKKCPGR
- Sequence (P00747 581-810 limits assumed): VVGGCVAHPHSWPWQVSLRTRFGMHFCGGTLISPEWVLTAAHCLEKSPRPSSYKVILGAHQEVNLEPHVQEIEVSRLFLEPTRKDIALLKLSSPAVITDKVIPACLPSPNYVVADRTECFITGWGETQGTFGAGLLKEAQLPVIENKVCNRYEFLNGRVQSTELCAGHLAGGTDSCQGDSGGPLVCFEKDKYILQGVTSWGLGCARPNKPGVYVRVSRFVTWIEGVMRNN
- method notes: Inhibition of human plasma plasmin using pyroGlu-Pro-Arg-pNA-HCl as substrate measured for 5 mins by spectrophotometric assay
pIC50: −log10 of the molar value.
result type: pIC50

>>> assay_result("CCOC(=O)c1ccc(OC(=O)CCCCCNC(=N)N)cc1 [GABEXATE]")
5.81
>>> assay_result("N=C(N)c1ccc(/C=C2/N=C(c3ccccc3)OC2=O)cc1")
6.47

* * *

The reader will find reported inhibition values listed item by item below.
- measured on: Plasma kallikrein (Homo sapiens, UniProt P03952)
- method notes: Inhibition of human plasma kallikrein using D-Pro-Phe-Arg-pNA-2HCl as substrate at 100 uM measured for 5 mins by spectrophotometric assay
- Assay type: cell-free
result type: inhibition (%)

>>> assay_result("N=C(N)Nc1ccc(CNc2cnc3cc(C(=O)NCc4ccc(F)cc4)ccn23)cc1")
0
>>> assay_result("N=C(N)Nc1ccc(CNc2cnc3ccccn23)cc1")
39.4
>>> assay_result("N=C(N)NC(=O)c1nc(Cl)c(N)nc1N [AMILORIDE]")
0
>>> assay_result("N=C(N)Nc1ccc(CNc2cnc3cc(C(=O)NC4CC4)ccn23)cc1")
0
>>> assay_result("N=C(N)Nc1ccc(CNc2cnc3cc(C(=O)NCCO)ccn23)cc1")
0
>>> assay_result("CN1CCN(CCNC(=O)c2ccn3c(NCc4ccc(NC(=N)N)cc4)cnc3c2)CC1")
0

* * *

- measured on: Coagulation factor VII (Homo sapiens) (UniProt P08709)
- Sequence (P08709 61-212 limits assumed): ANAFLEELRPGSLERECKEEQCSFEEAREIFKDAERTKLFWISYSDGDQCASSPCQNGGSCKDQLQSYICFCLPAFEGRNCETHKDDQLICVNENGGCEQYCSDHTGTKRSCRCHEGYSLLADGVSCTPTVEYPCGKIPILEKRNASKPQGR
- Sequence (P08709 213-466 limits assumed): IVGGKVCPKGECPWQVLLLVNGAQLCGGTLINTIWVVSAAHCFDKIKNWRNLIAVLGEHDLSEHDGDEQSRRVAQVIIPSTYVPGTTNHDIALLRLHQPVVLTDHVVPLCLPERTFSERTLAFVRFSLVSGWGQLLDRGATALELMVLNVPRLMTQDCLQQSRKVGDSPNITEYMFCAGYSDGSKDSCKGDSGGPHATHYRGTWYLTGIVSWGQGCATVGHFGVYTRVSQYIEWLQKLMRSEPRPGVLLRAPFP
- method notes: Inhibition of purified human factor 7a using MeSO2-Cha-Abu-Arg-pNA as substrate at 100 uM measured for 5 mins by spectrophotometric assay
inhibition of 1% or higher: 1.0. Under 1%: 0.0.

>>> label("N=C(N)Nc1ccc(CNc2cnc3ccccn23)cc1")
1.0
>>> label("N=C(N)Nc1ccc(CNc2cnc3cc(C(=O)NCCO)ccn23)cc1")
1.0
>>> label("N=C(N)Nc1ccc(CNc2c(-c3cccnc3)nc3ccccn23)cc1")
0.0
>>> label("N=C(N)Nc1ccc(CNc2cnc3cc(C(=O)NC4CCCC4)ccn23)cc1")
1.0
>>> label("N=C(N)Nc1ccc(CNc2cnc3cc(C(=O)NC4CC4)ccn23)cc1")
1.0
>>> label("CCCCNC(=O)c1ccn2c(NCc3ccc(NC(=N)N)cc3)cnc2c1")
1.0
>>> label("CN1CCN(CCNC(=O)c2ccn3c(NCc4ccc(NC(=N)N)cc4)cnc3c2)CC1")
1.0
>>> label("N=C(N)Nc1ccccc1")
0.0
>>> label("N=C(N)c1ccc(/C=C2/N=C(c3ccccc3)OC2=O)cc1")
0.0
>>> label("N=C(N)Nc1ccc(CNc2cnc3cc(C(=O)NCc4ccc(F)cc4)ccn23)cc1")
1.0
>>> label("N=C(N)NC(=O)c1nc(Cl)c(N)nc1N [AMILORIDE]")
1.0
